- Test description: qHTS for Inhibitors of binding or entry into cells for Lassa Virus; note: % is set by controls: 0 for no effect and ±100 for the full control effect
- Condition description: Lassa virus pseudotyped entry inhibition, cell-based qHTS; series mostly up to 49.2 µM
In all, about 18,000 compounds went through this assay and about 750 (4.2%) were called active. Another 13% or so got no clear call; they are omitted. Shown is part of a subset that was picked to be rich in actives.
Metric name: activity change, negative = inhibition

[
  {
    "Compound": "CCn1ccnc1C[C@@H]1COc2ccccc2O1",
    "Val": "inactive"
  },
  {
    "Compound": "COc1ccccc1-c1nc(NCCNC(C)=O)c2ccccc2n1",
    "Val": "inactive"
  },
  {
    "Compound": "Nc1nc(/C(=C/CC(=O)O)C(=O)N[C@@H]2C(=O)N3C(C(=O)O)=CCS[C@H]23)cs1",
    "Val": "inactive"
  },
  {
    "Compound": "Nc1ncnc2c1ncn2C1CC(O)C(CO)O1 (stereo not drawn)",
    "Val": "inactive"
  },
  {
    "Compound": "CNC(=O)C[C@H]1C(=O)N(Cc2ccccc2)C[C@@H]1CSC",
    "Val": "inactive"
  },
  {
    "Compound": "COCCN1C(=S)NC(c2cccc(F)c2)C(C(=O)OC)=C1C (stereo not drawn)",
    "Val": "11% [at 8.59 µM] (inactive)"
  },
  {
    "Compound": "Fc1ccc(Cl)cc1-c1nc(Nc2ccncc2)c2nccnc2n1",
    "Val": "inactive"
  },
  {
    "Compound": "C[C@@H]1CC[C@H]2C(=O)N(Cc3ccc(Cl)cc3)C[C@@H](O)CN2[C@@H]1c1cccc(Br)c1",
    "Val": "6.98% [at 8.59 µM] (inactive)"
  }
]
